assay.notes: Components of the Cytosolic LPS Sensing Pathway: Gene Identification via Genome-wide siRNA Screen
test.parameters: RAW264.7 macrophages, IL-1a HTRF, actives lie on both sides, screened at 100 nM (by protocol), cells primed 5 h with Pam3CSK4 first
In all, about 53,000 sequences went through this assay and about 3,700 (7%) were called active. The full list was thinned out, with actives kept by preference.
Quick list: z-score per entry.
assay.metric: z-score

* GGAUGGAACAUAUGAUUAGTT against Vmn1r234 | 0.653
* GUGGUCUUUAUCGGCAUGATT against Slc35c1 | 0.287
* CCACAGACUCUUAAUUAGATT against Ap3b1 | -2.14
* GCUUCUGUCAUAAUGAUAUTT against Pramel6 | -2.33
* AUGCAAGAGGAACGUAUCATT against Olfr1181 | -0.572
* CCAUGUGACAAAGCCUACCTT against Fam131b | 0.845

====

assay.notes: Components of the Cytosolic LPS Sensing Pathway: Gene Identification via Genome-wide siRNA Screen
test.parameters: RAW264.7 macrophages, IL-1a HTRF, actives lie on both sides, screened at 100 nM (by protocol), cells primed 5 h with Pam3CSK4 first
Screen size: about 53,000 sequences; about 3,700 (7%) were called active. This is one part of a sample in which actives are shown more often than they occur.
assay.metric: z-score

• GGAGAAUGAGAUCAACCUGTT against Pah = 0.618
• GCACAUUUAUCCCGGUGUATT against Pnpla2 = -2.01
• GGAACAGUCCUACUGAUAUTT against Cdkn1a = -0.271
• GCUGACCUAUUCUGAUCCATT against Chchd4 = -0.223
• GGCAAACUUAUCUUCUUCUTT against Ahsa1 = -1.89
• GGAGAUCCAAGAGAAAUUUTT against Csf3r = 1.18

====

assay.notes: Components of the Cytosolic LPS Sensing Pathway: Gene Identification via Genome-wide siRNA Screen;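 note: robust z of the log signal after scaling to non-targeting control siRNA wells of the plate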
test.parameters: RAW264.7 macrophages, IL-1a HTRF, actives lie on both sides, screened at 100 nM (by protocol), cells primed 5 h with Pam3CSK4 first
The whole screen tested about 53,000 sequences, of which about 3,700 (7%) were called active. This excerpt belongs to a sample that is enriched for actives.
assay.metric: z-score

• GCAUGAUUACCAGAACCACTT against Fcgr2b = 0.225
• GGAAUUCAGCUUUGUGCAATT against Asl = 0.764
• GGAAUCAUCUGAACACACATT against Ctcf = -2.18
• GGACCAGCUGAAGAUGGGATT against Pced1b = -1.1
• CUACUUCGAGAACAUGGGUTT against Tpgs1 = -0.749
• GGAGUGAGUCCUGAAGCAATT against Ifna12 = -0.372
• GGCUUUUAUUUUCUGGGAUTT against Barhl1 = 2.4
• GGAAAGCUCUCAAUACCUGTT against Olfr633 = -0.688
• GCAUAAUAGCGCAAGCUACTT against Ifi47 = 0.0047
• GGAGAAUCAGGGUAGCACATT against Txnl4a = -0.52
• GGAGAACACCAAAAAGGGCTT against Uncx = -1.26
• CCUUAUGAAUCCCGAGUACTT against Bmp6 = -0.0506
• GGCAUUAUGAGCAUCUCGGTT against Tnfrsf11a = -0.394
• GGAGGAUGAGAAAGAAGAGTT against Gja8 = -0.176
• GCAGGUGAAAAGCAAUCCUTT against Prss27 = 1.03
• GGUCGUUAUCACUCUCUAUTT against Pkd1l3 = 3.34
• GCAUGGACAGUUAUGUAUATT against Slc5a6 = -0.207
• GGUCAUGCACACUCGAAAUTT against Mrpl54 = 0.831
• GGAGGUAGAAAAGACAAAATT against Jrk = 1.96
• CCAAUUCAAUUAGACUAGATT against 9430015G10Rik = 0.89
• GGAGUGUUGCCAGUUCCUATT against Tctn2 = -0.434
• GCAUGAUCAAAUUGUAUCUTT against Nde1 = -2.21
• CGGCACCUAUGAGUCUUACTT against Cyp4x1 = 2.13
• GGAGGAAGAACUGUCUUUGTT against Wasf1 = 0.221
• GCUGGACAUCGACUUUGGATT against Prnd = -1.54

====

assay.notes: Components of the Cytosolic LPS Sensing Pathway: Gene Identification via Genome-wide siRNA Screen;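 note: robust z of the log signal after scaling to non-targeting control siRNA wells of the plate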
test.parameters: RAW264.7 macrophages, IL-1a HTRF, actives lie on both sides, screened at 100 nM (by protocol), cells primed 5 h with Pam3CSK4 first
Out of some 53,000 sequences screened, about 3,700 (7%) were called active. This excerpt belongs to a sample that is enriched for actives.
Quick list: z-score per entry.
assay.metric: z-score

- GGAAUCUCCACCAUACAGGTT against Vmn1r26: -0.263
- GCUCCUACUACUGCUUUGCTT against Crem: 0.979
- GGCAUUGAAUUACUUACAUTT against Slk: 2.46
- GCCAAUCGUAACUUGCUAATT against Arhgap19: 0.865
- GGGUUUUAGAAUGAAAUACTT against Emc6: 2.35
- GGCCUACCUUACCCUAAGATT against Adam32: 0.513

====

assay.notes: Components of the Cytosolic LPS Sensing Pathway: Gene Identification via Genome-wide siRNA Screen;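 note: robust z of the log signal after scaling to non-targeting control siRNA wells of the plate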
test.parameters: RAW264.7 macrophages, IL-1a HTRF, actives lie on both sides, screened at 100 nM (by protocol), cells primed 5 h with Pam3CSK4 first
In all, about 53,000 sequences went through this assay and about 3,700 (7%) were called active.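 How the source made its calls: active means gene knockdowns whose robust z-score for IL-1 alpha signal is at least 2 or at most -2, so actives lie on both sides; inactive means the rest.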 The full list was thinned out, with actives kept by preference.
Outcome codes: yes (active), no (inactive)

- GGCUGGUUGGAAGGAAAAUTT against Ints6l: yes
- GUUGGUAGAUUCAGUUUUCTT against Vmn1r89: no
- GGUGGUCUUUUCCCAGCAGTT against Msrb3: no
- GCGCAAAGUCGAAUCCAGUTT against Vgll1: no
- GCAAAAGGAAACGAUCUCATT against Fbxo43: no
- GGAUACAGCAGUACAAAUGTT against Ces2c: no
- GCAUGUGACUCCAUAUAAATT against Cldn15: no
- CCUGCUCAACGGAGACCAUTT against Hmx3: yes
- CCUGAGGUGUUUUACAUAUTT against Med20: no
- CCAUAUGGCUUAUCUUAUUTT against Adam5: no
- CCAACUCGUGAUUCUAGACTT against Tmed10: no
- GCCGAGCUCAAUGUGGGUATT against Bsn: no
- GGCUAUUGAGCUCUUUGUCTT against Qpctl: no
- GGUGAACUGGUCUACAACATT against Muc2: no
- AUUUCUGUAAGGCAAAUGUTT against Olfr970: no
- CCCGAGAUGAGGAACUUUUTT against Ndnf: no
- GGUAGAUGAUGAAAAACAATT against Erich3: yes
- GGGUUUAUAAAACUGAAGUTT against Cav2: no
- GGUGAUGCUAAAUUCUGAUTT against Mpc2: no
- CGAUGGAAGCACUUAUUUATT against Lep: no
- GCCUCAUUAUAAAUCACACTT against Bclaf3: no
- CGCUCGUUACCUAAAGCAGTT against Nwd1: yes
- GCAAAAGUGUAUCAUGAUGTT against Olfr1052: yes
- GGAAUAUUCACAGUCCGAGTT against Zfand3: yes
- CGGACAAGAUAGUAUUCUUTT against Atp2b1: no

====

assay.notes: Components of the Cytosolic LPS Sensing Pathway: Gene Identification via Genome-wide siRNA Screen;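 note: robust z of the log signal after scaling to non-targeting control siRNA wells of the plate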
test.parameters: RAW264.7 macrophages, IL-1a HTRF, actives lie on both sides, screened at 100 nM (by protocol), cells primed 5 h with Pam3CSK4 first
In all, about 53,000 sequences went through this assay and about 3,700 (7%) were called active.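 The calls were made as follows: active = gene knockdowns whose robust z-score for IL-1 alpha signal is at least 2 or at most -2, so actives lie on both sides; inactive = the rest.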 The sample as a whole holds a higher share of actives than the screen did.
Outcome codes: 1 for active, -1 for inactive

• GCUUCGAGUUACAAUGUCATT against Fbxw15 = -1
• CCUAUUGAGUCAUCCAUCGTT against Utp25 = -1
• GGUCAGAAGUUAAUUUAUGTT against Rad23b = -1
• GGAGAAAGAAGCUAGUGAGTT against Gm6787 = 1
• CCUCAAUUUCGAAGACCCUTT against Asb6 = -1
• GGUCAUGAAAAUUAAAGCATT against 1110059G10Rik = 1
• GGAACAACGGAAAAGCGAGTT against Ankrd1 = -1
• GCCAGAGGAUAACCUAUCGTT against Dsg4 = -1
• GCGGCAUCUACUUAAUAUGTT against Acer2 = 1
• GGAUGAAAUGAACCUAGAGTT against Sh3pxd2b = 1
• GGUGACCACUUCAUGUCACTT against Tmem138 = -1
• GGAAGCAGUUCAUGUUAAGTT against Dtx4 = -1
